Test system: Morganella morganii
TEST: In vitro antibacterial activity measured as minimum inhibitory concentration was evaluated on morganella morganii ATCC 8019 (Mm).
Format: functional
APPLIED_CONDITIONS: Morganella morganii, ATCC 8019; read-out: MIC
OUTCOME_MEASURE: MIC (µg/mL)

[[record]]
molecule = "C[C@H]1[C@H](N)CN1c1c(F)cc2c(=O)c(C(=O)O)cn(C3CC3)c2c1F (single isomer, unassigned)"
value_observed = 0.015

[[record]]
molecule = "C[C@@H]1[C@@H](N)CN1c1c(F)cc2c(=O)c(C(=O)O)cn(-c3ccc(F)cc3F)c2c1Cl"
value_observed = 0.5

[[record]]
molecule = "CC1C(N)CN1c1c(F)cc2c(=O)c(C(=O)O)cn(C3CC3)c2c1Cl (stereo not given)"
value_observed = 0.03

[[record]]
molecule = "C[C@@H]1[C@@H](NC(=O)[C@@H](C)N)CN1c1nc2c(cc1F)c(=O)c(C(=O)O)cn2C1CC1"
value_observed = 8

[[record]]
molecule = "C[C@H]1[C@H](N)CN1c1c(F)cc2c(=O)c(C(=O)O)cn(C3CC3)c2c1Cl (single isomer, unassigned)"
value_observed = 0.015

[[record]]
molecule = "C[C@H]1[C@H](N)CN1c1cc2c(cc1F)c(=O)c(C(=O)O)cn2C1CC1 (single isomer, unassigned)"
value_observed = 0.015

[[record]]
molecule = "C[C@@H]1[C@@H](N)CN1c1c(F)cc2c(=O)c(C(=O)O)cn(-c3ccc(F)cc3F)c2c1F"
value_observed = 0.25

[[record]]
molecule = "C[C@@H]1[C@H](N)CN1c1c(F)cc2c(=O)c(C(=O)O)cn(C3CC3)c2c1F (stereo in doubt; 23)"
value_observed = 0.12


[a] CC1C(N)CN1c1c(F)cc2c(=O)c(C(=O)O)cn(-c3ccc(F)cc3F)c2c1F (stereo not given)
[b] C[C@@H]1[C@@H](N)CN1c1cc2c(cc1F)c(=O)c(C(=O)O)cn2C1CC1
Input: Lower value of MIC belongs to which: a or b ? // output: label of the selected item
Output: a

###

Test system: Enterobacter cloacae
TEST: In vitro antibacterial activity measured as minimum inhibitory concentration, was evaluated on Enterobacter cloacae ATCC 23355 (Ecl).
Format: functional
APPLIED_CONDITIONS: Enterobacter cloacae, ATCC 23355; read-out: MIC
OUTCOME_MEASURE: MIC (µg/mL)

[[record]]
molecule = "C[C@H]1[C@H](N)CN1c1c(F)cc2c(=O)c(C(=O)O)cn(C3CC3)c2c1Cl (single isomer, unassigned)"
outcome_measure = "MIC"
readout_units = "µg/mL"
value_observed = 0.015

[[record]]
molecule = "C[C@@H]1[C@@H](N)CN1c1c(F)cc2c(=O)c(C(=O)O)cn(-c3ccc(F)cc3F)c2c1Cl"
outcome_measure = "MIC"
readout_units = "µg/mL"
value_observed = 0.25

[[record]]
molecule = "C[C@@H]1[C@@H](N)CN1c1nc2c(cc1F)c(=O)c(C(=O)O)cn2C1CC1"
outcome_measure = "MIC"
readout_units = "µg/mL"
value_observed = 0.12

[[record]]
molecule = "C[C@H]1COc2c(N3CC(N(C)C)C3)c(F)cc3c(=O)c(C(=O)O)cn1c23"
outcome_measure = "MIC"
readout_units = "µg/mL"
value_observed = 0.06

[[record]]
molecule = "C[C@H]1[C@H](N)CN1c1c(F)cc2c(=O)c(C(=O)O)cn(C3CC3)c2c1F (single isomer, unassigned)"
outcome_measure = "MIC"
readout_units = "µg/mL"
value_observed = 0.015


[P] C[C@H]1[C@H](N)CN1c1nc2c(cc1F)c(=O)c(C(=O)O)cn2C1CC1 (single isomer, unassigned)
[Q] CC1C(N)CN1c1c(F)cc2c(=O)c(C(=O)O)cn(-c3ccc(F)cc3F)c2c1F (centres undefined)
Input: Looking at recorded values for MIC, does P or Q come in lower? Record your answer as the label of the chosen record.
Output: P

[P] CCNCC1(C)CN(c2c(F)cc3c(=O)c(C(=O)O)cn4c3c2OC[C@@H]4C)C1
[Q] C[C@@H]1[C@@H](N)CN1c1c(F)cc2c(=O)c(C(=O)O)cn(-c3ccc(F)cc3F)c2c1F
[R] CCC[C@H](N)C(=O)N[C@@H]1CN(c2cc3c(cc2F)c(=O)c(C(=O)O)cn3-c2ccc(F)cc2F)[C@H]1C
Input: Order the entries by their reported MIC, beginning at the minimum. I would appreciate it if you listed the labels in the requested order.
Output: Q, P, R
(Q: 0.06 µg/mL, P: 0.5 µg/mL, R: 1 µg/mL)

[A] CC1C(N)CN1c1c(F)cc2c(=O)c(C(=O)O)cn3c2c1OC[C@@H]3C (single isomer, unassigned)
[B] C[C@H](N)C(=O)N[C@@H]1CN(c2cc3c(cc2F)c(=O)c(C(=O)O)cn3-c2ccc(F)cc2F)[C@H]1C
[C] C[C@@H]1[C@@H](N)CN1c1nc2c(cc1F)c(=O)c(C(=O)O)cn2-c1ccc(F)cc1F
Input: Arrange items by their MIC values in increasing order. Please list the labels in the order you were asked to rank them.
Output: A, C, B

###

TEST: Solubility at pH 7.4 buffer.
Format: physicochemical
OUTCOME_MEASURE: solubility

Use these answered entries as a reference point.
[[record]]
compound = "C[C@@H](N)C(=O)N[C@@H]1CN(c2nc3c(cc2F)c(=O)c(C(=O)O)cn3C2CC2)[C@H]1C"
outcome_measure = "solubility"
value_observed = "386 µg/mL"

[[record]]
compound = "C[C@H](N)C(=O)N[C@@H]1CN(c2cc3c(cc2F)c(=O)c(C(=O)O)cn3-c2ccc(F)cc2F)[C@H]1C"
outcome_measure = "solubility"
value_observed = "> 500 µg/mL"

[[record]]
compound = "C[C@H]1[C@H](N)CN1c1cc2c(cc1F)c(=O)c(C(=O)O)cn2-c1ccc(F)cc1F (single isomer, unassigned) [CETEFLOXACIN]"
outcome_measure = "solubility"
value_observed = "5.9 µg/mL"

[[record]]
compound = "C[C@H](N)C(=O)N[C@@H]1CN(c2nc3c(cc2F)c(=O)c(C(=O)O)cn3C2CC2)[C@H]1C"
outcome_measure = "solubility"
value_observed = "> 500 µg/mL"


Input: What does the record list as solubility for C[C@H](N)C(=O)N[C@@H](C)C(=O)N[C@@H]1CN(c2nc3c(cc2F)c(=O)c(C(=O)O)cn3C2CC2)[C@H]1C ?
Output: > 500 µg/mL

Input: Recorded solubility of C[C@H]1[C@H](N)CN1c1nc2c(cc1F)c(=O)c(C(=O)O)cn2C1CC1 (single isomer, unassigned) , please.
Output: 16.5 µg/mL

###

System: Morganella morganii
TEST: In vitro antibacterial activity measured as minimum inhibitory concentration was evaluated on morganella morganii ATCC 8019 (Mm).
Type: functional
APPLIED_CONDITIONS: Morganella morganii, ATCC 8019; read-out: MIC
OUTCOME_MEASURE: MIC (mg/L)

Check out these entries, answers already filled in.
[[record]]
compound = "CCNCC1(C)CN(c2c(F)cc3c(=O)c(C(=O)O)cn4c3c2OC[C@@H]4C)C1"
experimental_target = "Morganella morganii"
readout_units = "mg/L"
value_observed = 1

[[record]]
compound = "CCn1cc(C(=O)O)c(=O)c2cc(F)c(N3CC(N)C3C)c(F)c21 (stereo not drawn)"
experimental_target = "Morganella morganii"
readout_units = "mg/L"
value_observed = 0.06

[[record]]
compound = "Cc1c(F)c(N2C[C@H](N)[C@H]2C)nc2c1c(=O)c(C(=O)O)cn2-c1ccc(F)cc1F"
experimental_target = "Morganella morganii"
readout_units = "mg/L"
value_observed = 0.25

[[record]]
compound = "C[C@@H](N)C(=O)N[C@@H]1CN(c2nc3c(cc2F)c(=O)c(C(=O)O)cn3C2CC2)[C@H]1C"
experimental_target = "Morganella morganii"
readout_units = "mg/L"
value_observed = 2

[[record]]
compound = "CC1C(N)CN1c1cc2c(cc1F)c(=O)c(C(=O)O)cn2C1CC1 (stereo not drawn)"
experimental_target = "Morganella morganii"
readout_units = "mg/L"
value_observed = 0.03


[P] C[C@H]1COc2c(N3CC(C)(N)C3)c(F)cc3c(=O)c(C(=O)O)cn1c23
[Q] CCn1cc(C(=O)O)c(=O)c2cc(F)c(N3C[C@H](N)[C@H]3C)c(F)c21
[R] CCC[C@H](N)C(=O)N[C@@H]1CN(c2cc3c(cc2F)c(=O)c(C(=O)O)cn3-c2ccc(F)cc2F)[C@H]1C
[S] C[C@H](N)C(=O)N[C@@H]1CN(c2nc3c(cc2F)c(=O)c(C(=O)O)cn3C2CC2)[C@H]1C
[T] CC1C(N)CN1c1nc2c(cc1F)c(=O)c(C(=O)O)cn2C1CC1 (stereo not drawn)
Input: Order the records by MIC, with each subsequent value no larger than the one before. In your reply, arrange the labels in the requested order.
Output: R, S, Q, T, P
